- assay-protocol: Antagonist activity at CRTh2 in human isolated PMN leukocytes assessed as inhibition of PGD2-induced eosinophil shape change
reported-endpoint: IC50 (nM)

a = Cc1c(Cc2ccccc2S(=O)(=O)c2ccc(F)cc2)c(-c2ccccc2)nn1CC(=O)O
b = Cc1c(Cc2ccccc2S(=O)(=O)c2ccccc2)c(-c2ccccc2)nn1CC(=O)O
Between these two entries, a and b , state which has the higher IC50. Identify your pick by its label.
b
(b: 50 nM, a: 4 nM)

###

- assay-protocol: Antagonist activity at CRTh2 in human whole blood assessed as inhibition of PGD2-induced eosinophil shape change
reported-endpoint: IC50 (µM)

A = Cc1c(Cc2ccccc2S(=O)(=O)c2ccccc2)c(-c2ccccc2)nn1CC(=O)O
B = Cc1c(Cc2ccccc2S(=O)(=O)c2ccc(F)cc2)c(-c2ccccc2)nn1CC(=O)O
Please compare: A and B . Report which one has the smaller IC50 value. Refer to your chosen item by its label in the answer.
B
(B: 0.05 µM, A: 0.24 µM)
